- Test system: Staphylococcus aureus
- RUN_DESCRIPTION: Antibacterial activity against efflux-mediated macrolide-resistant Staphylococcus aureus PK1 by broth microdilution method
- Assay type: functional
Assignment: determine reported MIC for the given compounds.
Answers are plain numbers, in µg/mL.

Sample records with MIC:
• CC[C@H]1OC(=O)[C@H](C)[C@@H](O[C@H]2C[C@@](C)(OC)[C@@H](OC(=O)CCOCCOc3cc4c(=O)c(C(=O)OCOC(=O)C(C)(C)C)cn(C5CC5)c4cc3Cl)[C@H](C)O2)[C@H](C)[C@@H](O[C@@H]2O[C@H](C)C[C@H](N(C)C)[C@H]2O)[C@](C)(O)C[C@@H](C)CN(C)[C@H](C)[C@@H](O)[C@]1(C)O = 2
• CC[C@H]1OC(=O)[C@H](C)[C@@H](O[C@H]2C[C@@](C)(OC)[C@@H](OC(=O)CCOCCNc3cc4c(=O)c(C(=O)OCOCCOC)cn(C5CC5)c4cc3Cl)[C@H](C)O2)[C@H](C)[C@@H](O[C@@H]2O[C@H](C)C[C@H](N(C)C)[C@H]2O)[C@](C)(O)C[C@@H](C)CN(C)[C@H](C)[C@@H](O)[C@]1(C)O = 2

Shift focus to the following entry.
So what does the record say about MIC for CC[C@H]1OC(=O)[C@H](C)[C@@H](O[C@H]2C[C@@](C)(OC)[C@@H](OC(=O)CCOCCNc3ccc4c(c3)c(=O)c(C(=O)O)cn4C3CC3)[C@H](C)O2)[C@H](C)[C@@H](O[C@@H]2O[C@H](C)C[C@H](N(C)C)[C@H]2O)[C@](C)(O)C[C@@H](C)CN(C)[C@H](C)[C@@H](O)[C@]1(C)O ?
1

----------
- Test system: Staphylococcus aureus
- RUN_DESCRIPTION: Antibacterial activity against constitutive macrolide, lincosamide, streptogramin-resistant Staphylococcus aureus PK2 by broth microdilution method
- Format: functional
ENDPOINT: MIC (mg/L)
Answers are plain numbers, in mg/L.

So what does the record say about MIC for CC[C@H]1OC(=O)[C@H](C)[C@@H](O[C@H]2C[C@@](C)(OC)[C@@H](OC(=O)CCOCCOCCNc3cc4c(=O)c(C(=O)O)cn(C(C)C)c4cc3Cl)[C@H](C)O2)[C@H](C)[C@@H](O[C@@H]2O[C@H](C)C[C@H](N(C)C)[C@H]2O)[C@](C)(O)C[C@@H](C)CN(C)[C@H](C)[C@@H](O)[C@]1(C)O ?
64

----------
Assignment: determine reported MIC for the given molecules.
- System: Staphylococcus aureus
- RUN_DESCRIPTION: Antibacterial activity against constitutive macrolide, lincosamide, streptogramin-resistant Staphylococcus aureus PK2 by broth microdilution method
- Format: functional
One number for each entry, in µg/mL.

* CC[C@H]1OC(=O)[C@H](C)[C@@H](O[C@H]2C[C@@](C)(OC)[C@@H](OC(=O)CCOCCOc3ccc4c(c3)c(=O)c(C(=O)OCC(C)=O)cn4C3CC3)[C@H](C)O2)[C@H](C)[C@@H](O[C@@H]2O[C@H](C)C[C@H](N(C)C)[C@H]2O)[C@](C)(O)C[C@@H](C)CN(C)[C@H](C)[C@@H](O)[C@]1(C)O | 64

Shift focus to the following entry.
API: value(readout=MIC, system=Staphylococcus aureus) for record CC[C@H]1OC(=O)[C@H](C)[C@@H](O[C@H]2C[C@@](C)(OC)[C@@H](OC(=O)CCOCCOCCNc3cc4c(=O)c(C(=O)O)cn(C5CC5)c4cc3Cl)[C@H](C)O2)[C@H](C)[C@@H](O[C@@H]2O[C@H](C)C[C@H](N(C)C)[C@H]2O)[C@](C)(O)C[C@@H](C)CN(C)[C@H](C)[C@@H](O)[C@]1(C)O
16
